Target: T1, recombinant human CD123-Fc (human, UniProt P26951 19-305, limits assumed)
T1 construct: Panning and sorting antigen; not shown: Fc part
T1 sequence (looked up): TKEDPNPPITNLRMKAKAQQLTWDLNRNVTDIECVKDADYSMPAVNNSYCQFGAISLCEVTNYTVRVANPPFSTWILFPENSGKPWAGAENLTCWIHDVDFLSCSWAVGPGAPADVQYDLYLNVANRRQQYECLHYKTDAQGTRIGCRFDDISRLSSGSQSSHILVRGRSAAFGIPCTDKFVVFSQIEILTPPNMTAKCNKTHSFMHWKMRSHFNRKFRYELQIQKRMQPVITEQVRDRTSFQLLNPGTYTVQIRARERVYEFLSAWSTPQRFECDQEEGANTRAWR
Assay: yeast display; 3 rounds of MACS and a FACS sort (top 1%) with CD123-Fc; clone sequenced from the sorted pool, not tested singly
Description: A large yeast display human naive single chain variable fragment (ScFv) antibody library was used to isolate anti-human CD123 antibodies described herein. The library was constructed using a collection of human antibody gene repertoires from more than 60 individuals. Three rounds of magnetic-activated cell sorting (MACS) were performed to enrich human ScFv binders to the recombinant human CD123-Fc. […]

binder | binding result
CD123 hScFv binder M12311 (scFv) scFv: EVQLVQSGAEVKKPGSSVKVSCKASGGTFSSYAISWVRQAPGQGLEWMGGIIPIFGTANYAQKFQGRVTITADESTSTAYMELSSLRSEDTAVYYCARARLGGAFDIWGQGTMVTVSSGGGGSGGGGSGGGGSQSVLTQPPSVSAAPGQKVTISCSGGSSNIGNHYVSWYQQLPGAAPKLLIYDDNKRPSGIPDRFSGSRSGTSATLGITGLQSGDEADYYCGTWDSSLAAHVFGTGTKVTVLG | binds
CD123 hScFv binder M12315 (scFv) scFv: QVQLQQWGAGLLKPSETLSLTCAVYGGSFSGYYWSWIRQPPGKGLEWIGEINHSGSTNYNPSLKSRVTISVDTSKNQFSLKLSSVTAADTAVYYCARGQVKYSSSLGYWGQGTLVTVSSGGGGSGGGGSGGGGSQSVLTQPPSVSAAPGQKVTISCSGSSSNIGNNFVSWYQQLPGTAPKLLIYEDNKRPSGIPDRFSGSRSGTSATLGITGLQTGDEADYYCGTWDSSLGAWVFGGGTKLTVLG | binds
CD123 hScFv binder M12313 (scFv) scFv: EVQLVQSGAEVKKPGSSVKVSCKASGGTFSSYAISWVRQAPGQGLEWMGGIIPIFGTANYAQKFQGRVTITADESTSTAYMELSSLRSEDTAVYYCASQKGGGWSIDAFDIWGQGTMVTVSSGGGGSGGGGSGGGGSQSVLTQPPSVSAASGQRVTISCSGSSSNIGNNYASWYQQLPGMAPKLLIYEDNKRPSGISDRFSGSQSGTSASLAITGLQAEDEADYYCQSYDSSLSGDVVFGGGTKLTVLG | binds
